Recorded values, source patent US7398161B2.

assay: logD measurement by sampling of octanol/buffer two-layer sample with plug liquid, HPLC and mass spectrometer; conditions: octanol/buffer solution
endpoint: logD

A: CC(C)(C)NCC(O)c1cc(O)cc(O)c1 (centres unmarked)
B: C=CCc1ccccc1OCC(O)CNC(C)C (centres unmarked)
[in] Please tell me which of the two, A or B , has the higher reported logD value. Reply with the label of the item you choose.
[out] B
(B: 1.2, A: -1.9)

====

experiment: physchem
endpoint: logD

Please review the entries below; each comes with its answer.
INSERT INTO measurements (compound, readout_number) VALUES
  ('COCCc1ccc(OCC(O)CNC(C)C)cc1 (stereo not drawn)', 0.3),
  ('c1ccc(-c2ccc(C(c3ccccc3)n3ccnc3)cc2)cc1 (stereo not drawn)', 5.2),
  ('COc1ccc([C@@H]2Sc3ccccc3N(CCN(C)C)C(=O)[C@@H]2OC(C)=O)cc1', 2.3);

A: C[C@]12CC[C@@H]3c4ccc(O)cc4CC[C@H]3[C@@H]1CC[C@@H]2O
B: NC(=O)N1c2ccccc2C=Cc2ccccc21 [Carbamazepine]
[in] Could you point out whether the larger logD belongs to A or to B ? Record your answer as the label of the chosen record.
[out] A
